src = ChEMBL document CHEMBL3784934

# Measurement Protocol: Tmax in CD-1 mouse at 30 mg/kg, ip
# Assay type: ADME, organism-based
# Study Conditions: in vivo
Quantity Measured: Tmax (min)
Give the value in min but do not write min after it.

IN: Give a short answer stating reported Tmax for "CC1(C)CCC(Nc2ncnc3c2nn2ccccc32)CC1" .
OUT: 20

###

# Target Entity: Cytochrome P450 2C9 (Homo sapiens)
# Sequence (P11712 whole entry): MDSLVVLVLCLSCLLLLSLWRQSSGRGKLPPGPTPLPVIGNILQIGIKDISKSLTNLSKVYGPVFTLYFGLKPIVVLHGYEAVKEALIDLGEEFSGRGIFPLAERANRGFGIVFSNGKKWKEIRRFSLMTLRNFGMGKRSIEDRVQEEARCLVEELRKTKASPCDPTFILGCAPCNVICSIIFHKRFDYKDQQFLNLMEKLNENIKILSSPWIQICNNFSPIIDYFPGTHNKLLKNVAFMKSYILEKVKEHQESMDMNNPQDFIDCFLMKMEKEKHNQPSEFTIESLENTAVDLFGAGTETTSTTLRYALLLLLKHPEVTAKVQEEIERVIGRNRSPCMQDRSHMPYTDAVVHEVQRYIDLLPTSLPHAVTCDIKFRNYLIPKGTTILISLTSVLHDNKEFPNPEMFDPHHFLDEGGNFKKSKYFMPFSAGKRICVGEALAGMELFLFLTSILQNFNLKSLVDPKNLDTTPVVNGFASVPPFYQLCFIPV
pIC50: −log10 of the molar value.
Quantity Measured: pIC50

IN: Using the record for "CC1(C)CCC(Nc2ncnc3c2nn2ccccc32)CC1" , state its measured pIC50.
OUT: < 4.52

###

# Target Entity: Cytochrome P450 2D6 (Homo sapiens)
# Sequence (P10635 whole entry): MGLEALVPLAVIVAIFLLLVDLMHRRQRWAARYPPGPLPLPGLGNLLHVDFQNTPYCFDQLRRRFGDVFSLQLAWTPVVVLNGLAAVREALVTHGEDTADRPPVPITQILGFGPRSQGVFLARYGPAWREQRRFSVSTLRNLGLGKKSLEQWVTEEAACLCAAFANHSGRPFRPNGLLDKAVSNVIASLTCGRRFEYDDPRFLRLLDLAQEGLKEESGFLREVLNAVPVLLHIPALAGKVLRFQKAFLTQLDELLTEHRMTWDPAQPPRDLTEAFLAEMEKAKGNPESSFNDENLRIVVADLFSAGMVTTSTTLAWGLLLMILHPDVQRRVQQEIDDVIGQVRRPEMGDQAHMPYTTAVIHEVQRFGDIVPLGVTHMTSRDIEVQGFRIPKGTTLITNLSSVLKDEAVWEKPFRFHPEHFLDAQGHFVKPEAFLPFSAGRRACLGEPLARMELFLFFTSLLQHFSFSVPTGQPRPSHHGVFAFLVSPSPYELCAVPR
Quantity Measured: IC50

IN: Query IC50 for "CC1(C)CCC(Nc2ncnc3c2nn2ccccc32)CC1"
OUT: > 30 µM
